Study target: TRa (Homo sapiens, UniProt P10827)
Sequence (P10827 163-410 isoform P10827-2 limits assumed): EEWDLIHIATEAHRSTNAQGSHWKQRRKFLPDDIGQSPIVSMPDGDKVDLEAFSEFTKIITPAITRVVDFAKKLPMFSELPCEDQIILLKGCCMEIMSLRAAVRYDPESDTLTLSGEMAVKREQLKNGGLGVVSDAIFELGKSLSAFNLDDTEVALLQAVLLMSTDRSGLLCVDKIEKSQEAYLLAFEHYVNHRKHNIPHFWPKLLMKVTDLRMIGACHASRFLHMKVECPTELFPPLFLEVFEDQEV
Assay text: Receptor reporter assay selectivity panel: TRa
pEC50: −log10 of the molar value.
Readout kind: pEC50

Using the record for O=C(O)c1ccc(-c2nn(C(=O)c3c(Cl)cccc3C(F)(F)F)c3cccc(F)c23)c(F)c1 , state its measured pEC50.
< 4.52

* * *

Study target: PR (Homo sapiens, UniProt P06401)
Sequence (P06401 whole entry): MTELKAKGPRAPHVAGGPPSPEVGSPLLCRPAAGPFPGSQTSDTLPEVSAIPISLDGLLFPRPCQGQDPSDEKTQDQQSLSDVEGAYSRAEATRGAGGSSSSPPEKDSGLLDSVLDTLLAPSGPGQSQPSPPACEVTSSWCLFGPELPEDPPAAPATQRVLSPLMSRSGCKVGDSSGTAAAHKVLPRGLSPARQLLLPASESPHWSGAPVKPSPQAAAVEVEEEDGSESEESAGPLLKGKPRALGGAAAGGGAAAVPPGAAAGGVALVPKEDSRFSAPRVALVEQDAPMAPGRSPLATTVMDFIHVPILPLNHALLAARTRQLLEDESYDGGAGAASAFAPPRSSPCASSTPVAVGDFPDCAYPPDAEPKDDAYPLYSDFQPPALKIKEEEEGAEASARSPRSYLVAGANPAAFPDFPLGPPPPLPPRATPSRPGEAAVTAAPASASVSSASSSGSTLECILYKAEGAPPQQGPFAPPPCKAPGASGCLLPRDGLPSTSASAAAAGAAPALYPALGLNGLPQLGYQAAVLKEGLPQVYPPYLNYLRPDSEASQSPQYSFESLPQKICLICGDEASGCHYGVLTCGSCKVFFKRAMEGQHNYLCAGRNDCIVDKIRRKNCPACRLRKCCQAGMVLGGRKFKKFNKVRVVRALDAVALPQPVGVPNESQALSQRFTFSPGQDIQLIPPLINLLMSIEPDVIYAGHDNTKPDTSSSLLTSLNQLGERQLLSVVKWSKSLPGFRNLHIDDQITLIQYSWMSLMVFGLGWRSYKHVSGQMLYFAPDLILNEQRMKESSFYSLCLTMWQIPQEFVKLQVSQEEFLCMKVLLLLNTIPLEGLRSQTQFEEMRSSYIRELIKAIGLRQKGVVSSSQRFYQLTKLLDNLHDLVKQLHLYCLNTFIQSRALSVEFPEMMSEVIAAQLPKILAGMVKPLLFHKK
Assay text: Receptor reporter assay selectivity panel: PR
Readout kind: EC50

Output EC50 of O=C(O)c1ccc(-c2nn(C(=O)c3c(Cl)cccc3C(F)(F)F)c3cccc(F)c23)c(F)c1
> 30 µM

* * *

Study target: RARa (Homo sapiens)
Sequence (P10276 183-417 limits assumed): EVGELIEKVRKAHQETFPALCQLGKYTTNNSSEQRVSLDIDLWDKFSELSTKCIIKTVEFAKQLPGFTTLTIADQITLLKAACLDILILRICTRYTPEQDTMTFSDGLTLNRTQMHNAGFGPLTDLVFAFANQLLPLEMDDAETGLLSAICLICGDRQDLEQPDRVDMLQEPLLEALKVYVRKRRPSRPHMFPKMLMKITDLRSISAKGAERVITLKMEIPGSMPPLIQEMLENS
Assay text: Receptor reporter assay selectivity panel: RARa
pEC50: −log10 of the molar value.
Readout kind: pEC50

Under RARa (Homo sapiens), report pEC50 for O=C(O)c1ccc(-c2nn(C(=O)c3c(Cl)cccc3C(F)(F)F)c3cccc(F)c23)c(F)c1
< 4.52

* * *

Study target: LXRb (Homo sapiens)
Assay text: Receptor reporter assay selectivity panel: LXRb
Readout kind: pIC50
Field pIC50 (float): negative decimal logarithm of the concentration in molar.

Look up pIC50 of O=C(O)c1ccc(-c2nn(C(=O)c3c(Cl)cccc3C(F)(F)F)c3cccc(F)c23)c(F)c1 and report it.
4.67

* * *

Study target: LXRa (Homo sapiens)
Assay text: Receptor reporter assay selectivity panel: LXRa
Readout kind: IC50 (µM)
Write it as a number; the unit µM goes unstated.

Return IC50 for the following compound: O=C(O)c1ccc(-c2nn(C(=O)c3c(Cl)cccc3C(F)(F)F)c3cccc(F)c23)c(F)c1 [MRL-299]
23.2

* * *

Study target: RARg (Homo sapiens)
Sequence (P13631 185-419 limits assumed): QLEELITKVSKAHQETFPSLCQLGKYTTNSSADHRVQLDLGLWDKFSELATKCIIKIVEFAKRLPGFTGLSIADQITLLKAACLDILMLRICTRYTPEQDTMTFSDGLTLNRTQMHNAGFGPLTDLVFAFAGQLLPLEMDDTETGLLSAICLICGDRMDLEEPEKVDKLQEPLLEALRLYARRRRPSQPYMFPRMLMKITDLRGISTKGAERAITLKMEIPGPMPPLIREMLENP
Assay text: Receptor reporter assay selectivity panel: RARg
Readout kind: EC50

Note EC50 for the compound shown: O=C(O)c1ccc(-c2nn(C(=O)c3c(Cl)cccc3C(F)(F)F)c3cccc(F)c23)c(F)c1
364 nM

* * *

Study target: UniProt:P10827
Assay text: Receptor reporter assay selectivity panel: TRa
Readout kind: IC50
Please state the value followed by its unit.

Give the reported value of IC50 for this record: O=C(O)c1ccc(-c2nn(C(=O)c3c(Cl)cccc3C(F)(F)F)c3cccc(F)c23)c(F)c1
4.49 µM

* * *

Study target: CAR2 (Homo sapiens, UniProt Q14994)
Assay text: Receptor reporter assay selectivity panel: CAR2
pEC50: −log10 of the molar value.
Readout kind: pEC50

Report its pEC50 with CAR2 (Homo sapiens, UniProt Q14994) as the test system: O=C(O)c1ccc(-c2nn(C(=O)c3c(Cl)cccc3C(F)(F)F)c3cccc(F)c23)c(F)c1
< 4.52

* * *

Study target: TRb (Homo sapiens, UniProt P10828)
Sequence (P10828 217-461 limits assumed): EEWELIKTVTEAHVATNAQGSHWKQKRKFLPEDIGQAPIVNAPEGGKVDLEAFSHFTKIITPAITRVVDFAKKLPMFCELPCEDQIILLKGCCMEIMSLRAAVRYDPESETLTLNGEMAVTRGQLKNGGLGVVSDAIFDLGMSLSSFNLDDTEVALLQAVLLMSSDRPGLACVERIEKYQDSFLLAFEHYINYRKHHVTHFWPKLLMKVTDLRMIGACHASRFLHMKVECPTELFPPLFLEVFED
Assay text: Receptor reporter assay selectivity panel: TRb
Readout kind: pIC50
Units for pIC50: none; it is -log10 of a concentration expressed in mol/L.

Give recorded pIC50. O=C(O)c1ccc(-c2nn(C(=O)c3c(Cl)cccc3C(F)(F)F)c3cccc(F)c23)c(F)c1
5.24

* * *

Study target: PPARg (Homo sapiens, UniProt P37231)
Sequence (P37231 232-505 limits assumed): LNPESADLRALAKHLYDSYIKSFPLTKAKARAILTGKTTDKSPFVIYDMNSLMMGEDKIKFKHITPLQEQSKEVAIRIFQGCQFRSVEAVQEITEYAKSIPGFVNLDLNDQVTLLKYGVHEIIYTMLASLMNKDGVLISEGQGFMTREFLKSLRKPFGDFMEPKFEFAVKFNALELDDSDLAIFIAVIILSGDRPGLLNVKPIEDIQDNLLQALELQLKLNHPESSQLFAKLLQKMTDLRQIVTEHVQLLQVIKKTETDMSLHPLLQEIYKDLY
Assay text: Receptor reporter assay selectivity panel: PPARg
Readout kind: IC50 (nM)
# number only, unit nM dropped from output

Read the entry O=C(O)c1ccc(-c2nn(C(=O)c3c(Cl)cccc3C(F)(F)F)c3cccc(F)c23)c(F)c1 [MRL-299] and write its reported IC50.
517

* * *

Study target: ERb (Homo sapiens)
Assay text: Receptor reporter assay selectivity panel: ERb
Readout kind: pIC50
Give only the number. pIC50 is defined as minus log10 of concentration in molar units.

Let me know recorded pIC50 for O=C(O)c1ccc(-c2nn(C(=O)c3c(Cl)cccc3C(F)(F)F)c3cccc(F)c23)c(F)c1 [MRL-299] , thanks.
4.97

* * *

Study target: RXRb (Homo sapiens)
Sequence (P28702 296-533 limits assumed): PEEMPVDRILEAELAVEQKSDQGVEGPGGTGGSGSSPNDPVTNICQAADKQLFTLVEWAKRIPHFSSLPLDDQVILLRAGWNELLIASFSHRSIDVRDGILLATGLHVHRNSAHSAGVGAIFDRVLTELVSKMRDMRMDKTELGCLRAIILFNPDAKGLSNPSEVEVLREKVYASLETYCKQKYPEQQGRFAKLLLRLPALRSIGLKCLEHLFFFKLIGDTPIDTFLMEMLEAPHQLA
Assay text: Receptor reporter assay selectivity panel: RXRb
Readout kind: EC50

Entry O=C(O)c1ccc(-c2nn(C(=O)c3c(Cl)cccc3C(F)(F)F)c3cccc(F)c23)c(F)c1 [MRL-299] needs its EC50 filled in; supply it.
> 30 µM

* * *

Study target: AR (Homo sapiens)
Sequence (P10275 whole entry): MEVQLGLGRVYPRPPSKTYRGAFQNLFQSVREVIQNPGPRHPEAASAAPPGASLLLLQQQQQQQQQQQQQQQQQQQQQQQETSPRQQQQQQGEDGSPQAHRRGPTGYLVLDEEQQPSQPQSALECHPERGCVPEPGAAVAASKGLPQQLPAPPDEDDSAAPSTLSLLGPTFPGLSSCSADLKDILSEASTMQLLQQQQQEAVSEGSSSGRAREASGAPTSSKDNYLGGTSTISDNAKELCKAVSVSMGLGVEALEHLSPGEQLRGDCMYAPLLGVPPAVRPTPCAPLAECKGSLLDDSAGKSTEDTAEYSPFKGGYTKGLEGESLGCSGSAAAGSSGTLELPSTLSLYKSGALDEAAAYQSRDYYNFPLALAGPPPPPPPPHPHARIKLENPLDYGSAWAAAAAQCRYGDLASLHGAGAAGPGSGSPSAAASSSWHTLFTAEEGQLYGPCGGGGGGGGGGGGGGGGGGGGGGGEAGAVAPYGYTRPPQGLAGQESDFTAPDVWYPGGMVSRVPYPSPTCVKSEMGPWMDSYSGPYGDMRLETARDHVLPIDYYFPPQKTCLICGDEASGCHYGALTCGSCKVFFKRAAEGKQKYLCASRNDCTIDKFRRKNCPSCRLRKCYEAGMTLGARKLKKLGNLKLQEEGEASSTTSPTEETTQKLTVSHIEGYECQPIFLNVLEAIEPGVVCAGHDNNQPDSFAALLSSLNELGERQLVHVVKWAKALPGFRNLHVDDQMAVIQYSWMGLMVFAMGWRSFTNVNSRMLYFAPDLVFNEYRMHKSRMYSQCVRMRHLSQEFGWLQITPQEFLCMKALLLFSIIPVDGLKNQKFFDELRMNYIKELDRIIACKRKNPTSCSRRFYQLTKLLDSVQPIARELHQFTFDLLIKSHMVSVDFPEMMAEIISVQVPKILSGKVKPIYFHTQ
Assay text: Receptor reporter assay selectivity panel (Indigo Bioscience): AR
Readout kind: IC50 (µM)
# unit: µM | format: bare number

# assay system AR (Homo sapiens): give IC50 of O=C(O)c1ccc(-c2nn(C(=O)c3c(Cl)cccc3C(F)(F)F)c3cccc(F)c23)c(F)c1
12

* * *

Study target: ERa (Homo sapiens, UniProt P03372)
Sequence (P03372 whole entry): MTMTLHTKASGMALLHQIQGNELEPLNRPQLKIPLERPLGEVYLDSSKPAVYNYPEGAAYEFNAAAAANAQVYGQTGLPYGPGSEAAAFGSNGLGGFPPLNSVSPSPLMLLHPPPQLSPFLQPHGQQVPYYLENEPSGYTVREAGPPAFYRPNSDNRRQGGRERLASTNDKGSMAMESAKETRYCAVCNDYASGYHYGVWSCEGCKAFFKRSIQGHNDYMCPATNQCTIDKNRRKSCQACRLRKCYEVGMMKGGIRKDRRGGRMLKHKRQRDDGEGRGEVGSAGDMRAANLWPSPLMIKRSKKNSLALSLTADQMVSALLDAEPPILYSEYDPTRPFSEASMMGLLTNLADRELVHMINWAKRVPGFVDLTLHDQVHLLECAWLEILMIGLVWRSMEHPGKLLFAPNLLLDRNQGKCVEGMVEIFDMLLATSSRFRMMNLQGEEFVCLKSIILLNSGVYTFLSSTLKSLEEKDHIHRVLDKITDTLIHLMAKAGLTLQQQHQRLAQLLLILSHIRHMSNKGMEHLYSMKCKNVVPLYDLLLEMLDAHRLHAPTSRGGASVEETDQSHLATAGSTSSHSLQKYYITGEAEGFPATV
Assay text: Receptor reporter assay selectivity panel: ERa
Readout kind: EC50

State EC50 on ERa (Homo sapiens, UniProt P03372). Entry: O=C(O)c1ccc(-c2nn(C(=O)c3c(Cl)cccc3C(F)(F)F)c3cccc(F)c23)c(F)c1
> 30 µM

* * *

Study target: ERb (Homo sapiens, UniProt Q92731)
Sequence (Q92731 whole entry): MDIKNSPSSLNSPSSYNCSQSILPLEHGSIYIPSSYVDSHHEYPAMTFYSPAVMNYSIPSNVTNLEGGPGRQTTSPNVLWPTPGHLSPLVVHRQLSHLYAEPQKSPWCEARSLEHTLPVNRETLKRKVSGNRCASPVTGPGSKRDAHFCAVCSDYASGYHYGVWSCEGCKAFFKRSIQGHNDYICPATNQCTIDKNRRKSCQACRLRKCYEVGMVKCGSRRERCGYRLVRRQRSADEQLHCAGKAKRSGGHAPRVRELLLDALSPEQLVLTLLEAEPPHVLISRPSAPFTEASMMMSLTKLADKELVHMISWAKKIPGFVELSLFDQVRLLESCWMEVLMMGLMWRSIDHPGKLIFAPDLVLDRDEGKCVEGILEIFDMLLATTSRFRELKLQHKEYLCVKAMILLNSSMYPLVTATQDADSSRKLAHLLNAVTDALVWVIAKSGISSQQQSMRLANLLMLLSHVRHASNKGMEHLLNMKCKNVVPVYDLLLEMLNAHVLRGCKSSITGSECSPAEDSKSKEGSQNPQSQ
Assay text: Receptor reporter assay selectivity panel: ERb
Readout kind: EC50

Note EC50 for the molecule shown: O=C(O)c1ccc(-c2nn(C(=O)c3c(Cl)cccc3C(F)(F)F)c3cccc(F)c23)c(F)c1
> 30 µM

* * *

Study target: LXRa (Homo sapiens)
Sequence (Q13133 209-447 limits assumed): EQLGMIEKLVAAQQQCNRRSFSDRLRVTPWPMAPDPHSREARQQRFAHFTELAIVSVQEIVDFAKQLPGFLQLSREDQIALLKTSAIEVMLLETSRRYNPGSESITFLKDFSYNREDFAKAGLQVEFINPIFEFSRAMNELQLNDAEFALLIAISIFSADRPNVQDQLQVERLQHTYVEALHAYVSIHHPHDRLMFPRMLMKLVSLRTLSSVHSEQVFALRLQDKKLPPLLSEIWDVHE
Assay text: Receptor reporter assay selectivity panel: LXRa
Readout kind: EC50

Give measured EC50 for O=C(O)c1ccc(-c2nn(C(=O)c3c(Cl)cccc3C(F)(F)F)c3cccc(F)c23)c(F)c1 (LXRa (Homo sapiens)).
> 30 µM

* * *

Study target: GR (Homo sapiens, UniProt P04150)
Sequence (P04150 whole entry): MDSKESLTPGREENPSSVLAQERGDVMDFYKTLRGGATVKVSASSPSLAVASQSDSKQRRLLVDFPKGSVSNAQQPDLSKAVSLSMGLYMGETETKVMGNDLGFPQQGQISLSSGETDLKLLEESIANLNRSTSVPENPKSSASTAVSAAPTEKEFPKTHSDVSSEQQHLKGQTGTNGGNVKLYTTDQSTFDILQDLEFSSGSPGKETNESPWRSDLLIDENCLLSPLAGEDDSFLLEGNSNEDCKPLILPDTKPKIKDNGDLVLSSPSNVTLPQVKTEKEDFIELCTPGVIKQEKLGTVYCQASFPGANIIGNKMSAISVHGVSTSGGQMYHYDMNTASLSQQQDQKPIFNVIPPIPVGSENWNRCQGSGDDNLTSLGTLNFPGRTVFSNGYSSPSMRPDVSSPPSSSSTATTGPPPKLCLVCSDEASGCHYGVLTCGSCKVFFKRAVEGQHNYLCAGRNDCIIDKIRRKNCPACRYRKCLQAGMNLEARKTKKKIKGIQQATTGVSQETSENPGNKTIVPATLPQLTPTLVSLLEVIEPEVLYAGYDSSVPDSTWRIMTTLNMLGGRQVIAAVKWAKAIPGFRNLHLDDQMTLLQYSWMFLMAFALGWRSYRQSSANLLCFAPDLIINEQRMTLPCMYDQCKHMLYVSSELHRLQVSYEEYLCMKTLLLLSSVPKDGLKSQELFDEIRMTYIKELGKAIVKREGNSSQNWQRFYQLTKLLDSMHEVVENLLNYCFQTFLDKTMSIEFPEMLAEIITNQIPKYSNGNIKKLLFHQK
Assay text: Receptor reporter assay selectivity panel: GR
Readout kind: pIC50
Remember the convention: pIC50 equals -log10 of concentration in molar.

Identify the reported pIC50 for the following entry. O=C(O)c1ccc(-c2nn(C(=O)c3c(Cl)cccc3C(F)(F)F)c3cccc(F)c23)c(F)c1
4.73

* * *

Study target: AhR (Homo sapiens, UniProt P35869)
Assay text: Receptor reporter assay selectivity panel: AhR
Readout kind: EC50

Please give the documented EC50 of O=C(O)c1ccc(-c2nn(C(=O)c3c(Cl)cccc3C(F)(F)F)c3cccc(F)c23)c(F)c1
> 30 µM

* * *

Study target: FXR (Homo sapiens, UniProt Q96RI1)
Sequence (Q96RI1 262-486 limits assumed): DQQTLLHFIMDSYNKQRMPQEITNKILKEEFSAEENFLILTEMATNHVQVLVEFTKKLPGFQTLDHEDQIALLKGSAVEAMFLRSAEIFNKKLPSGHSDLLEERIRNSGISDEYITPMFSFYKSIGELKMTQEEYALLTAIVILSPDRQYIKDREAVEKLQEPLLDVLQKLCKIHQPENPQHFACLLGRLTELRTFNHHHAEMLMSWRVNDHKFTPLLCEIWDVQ
Assay text: Receptor reporter assay selectivity panel: FXR
pEC50: −log10 of the molar value.
Readout kind: pEC50

Provide FXR (Homo sapiens, UniProt Q96RI1) pEC50 reading for O=C(O)c1ccc(-c2nn(C(=O)c3c(Cl)cccc3C(F)(F)F)c3cccc(F)c23)c(F)c1 .
< 4.52

* * *

Study target: RXRa (Homo sapiens)
Sequence (P19793 227-462 limits assumed): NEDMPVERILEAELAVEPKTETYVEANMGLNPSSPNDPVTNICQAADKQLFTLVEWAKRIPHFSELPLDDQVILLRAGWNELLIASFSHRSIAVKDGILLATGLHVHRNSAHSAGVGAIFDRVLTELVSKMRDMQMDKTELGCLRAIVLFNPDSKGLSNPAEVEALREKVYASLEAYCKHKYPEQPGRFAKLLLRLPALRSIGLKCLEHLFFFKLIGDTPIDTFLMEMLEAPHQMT
Assay text: Receptor reporter assay selectivity panel: RXRa
Readout kind: pIC50
Interpret pIC50 as the negative base-10 log of the concentration measured in mol/L.

Return the recorded pIC50 value; entry: O=C(O)c1ccc(-c2nn(C(=O)c3c(Cl)cccc3C(F)(F)F)c3cccc(F)c23)c(F)c1 [MRL-299]
5.13

* * *

Study target: UniProt:P04150
Assay text: Receptor reporter assay selectivity panel: GR
pEC50: −log10 of the molar value.
Readout kind: pEC50

Input O=C(O)c1ccc(-c2nn(C(=O)c3c(Cl)cccc3C(F)(F)F)c3cccc(F)c23)c(F)c1 [MRL-299] , output reported pEC50.
< 4.52
